Cited source: patent US20260151494A1

biological target: T1, human CD71 extracellular domain (human, UniProt P02786 89-760, biotinylated); experiment: primary ELISA, RLU over HSA
T1 construct: also called hCD71; CD71-ECD
T1 sequence (P02786 89-760): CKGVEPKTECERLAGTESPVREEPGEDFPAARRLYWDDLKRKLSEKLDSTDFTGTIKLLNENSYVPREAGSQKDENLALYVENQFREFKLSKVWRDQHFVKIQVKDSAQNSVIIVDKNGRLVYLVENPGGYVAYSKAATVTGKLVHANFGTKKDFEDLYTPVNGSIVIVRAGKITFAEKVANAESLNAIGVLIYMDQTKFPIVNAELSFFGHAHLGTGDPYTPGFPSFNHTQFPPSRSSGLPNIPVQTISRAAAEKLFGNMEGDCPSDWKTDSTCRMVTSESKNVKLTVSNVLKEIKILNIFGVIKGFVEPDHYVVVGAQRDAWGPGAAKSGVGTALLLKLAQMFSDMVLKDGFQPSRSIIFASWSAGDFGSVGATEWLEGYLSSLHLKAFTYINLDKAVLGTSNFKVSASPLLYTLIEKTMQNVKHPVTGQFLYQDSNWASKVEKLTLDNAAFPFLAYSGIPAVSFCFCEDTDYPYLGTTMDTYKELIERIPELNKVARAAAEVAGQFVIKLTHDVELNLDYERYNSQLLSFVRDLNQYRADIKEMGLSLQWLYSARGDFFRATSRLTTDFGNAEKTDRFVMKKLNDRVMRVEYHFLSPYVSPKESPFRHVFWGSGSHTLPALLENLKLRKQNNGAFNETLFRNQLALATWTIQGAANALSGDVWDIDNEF
endpoint: hCD71:HSA

Previously resolved entries follow.
binder: CD71-binding FN3 domain of SEQ ID NO: 497 (designed binder) MLPAPKNLVVSRVTEDSARLSWTAPDAAFDSFFIGYLEPQPPGEAITLLVPGSERSYDLTGLKPGTEYNVTIQGVKGGFPSKPLYAYFTT
measured value: 229
--
binder: CD71-binding FN3 domain of SEQ ID NO: 481 (designed binder) MLPAPKNLVVSRVTEDSARLSWTAPDAAFDSFFIGYLEPQPPGEAITLYVPGSERSYDMTGLKPGTEYNVTIQGVKGGFPSLPLQAHFTT
measured value: 816

I. CD71-binding FN3 domain of SEQ ID NO: 530 (designed binder) MLPAPKNLVVSRVTEDSARLSWTAPDAAFDSFFIGYLEPQPPGEAIDLLVPGSERSYDLTGLKPGTEYNVTIQGVKGGFPSEPLFAHFTT
II. CD71-binding FN3 domain of SEQ ID NO: 514 (designed binder) MLPAPKNLVVSRVTEDSARLSWTAPDAAFDSFFIGYLEPQPPGEAIHLFVPGSERSYDLTGLKPGTEYNVTIQGVKGGFPSEPLIANFTT
query: Choose between I and II : whose measured hCD71:HSA value is numerically larger? Answer = label.
result: I
(I: 289, II: 119)
